# Tested on: souris femelles de type DSA/2
# condition.context: mouse, in vivo, ip, 43200 min
Listed below: DL0 values for each entry.

smiles.record	unit.of.measure	DL0
CC(=Nc1c(O)ccc2[nH]c3c(C)c4cc[n+](C)cc4c(C)c3c12)C(=O)O	mg/kg	20
Cc1c2cc[n+](C)cc2c(C)c2c1[nH]c1ccc(O)c(N=CC(=O)O)c12	mg/kg	20
Cc1c2cc[n+](C)cc2c(C)c2c1[nH]c1ccc(O)c(N=C(C(=O)O)C(C)C)c12	mg/kg	15
Cc1c2cc[n+](C)cc2c(C)c2c1[nH]c1ccc(O)c(N=C(CC(C)C)C(=O)O)c12	mg/kg	10

---

# Tested on: cellules leucémiques L 1210
# assay.name: Cytotoxicity: growth inhibition of L 1210 cells in culture
# Format: cell-based
# condition.context: Mus musculus, L1210; concentration giving 50 p. 100 inhibition of cell multiplication; 48 hours of culture; DMSO 1 p. 100 final; read-out: ID50 (the source's name)
pIC50: −log10 of the molar value.
Kind request: treat 6 as inclusive, so pIC50 at 6 or higher is Fulfilled, anything lower is Not fulfilled.

molecule	class.label
Cc1c2cc[n+](C)cc2c(C)c2c1[nH]c1ccc(O)c(N=C(CCC(=O)O)C(=O)O)c12	Not fulfilled
Cc1c2cc[n+](C)cc2c(C)c2c1[nH]c1ccc(O)c(N=C(C(=O)O)C(C)C)c12	Fulfilled
Cc1c2cc[n+](C)cc2c(C)c2c1[nH]c1ccc(O)c(N=CC(=O)O)c12	Fulfilled
Cc1c2cc[n+](C)cc2c(C)c2c1[nH]c1ccc(O)c(N=C(Cc3c[nH]cn3)C(=O)O)c12	Not fulfilled
Cc1c2cc[n+](C)cc2c(C)c2c1[nH]c1ccc(O)c(N=C(CC(C)C)C(=O)O)c12	Fulfilled
CC(=Nc1c(O)ccc2[nH]c3c(C)c4cc[n+](C)cc4c(C)c3c12)C(=O)O	Fulfilled
Cc1c2cc[n+](C)cc2c(C)c2c1[nH]c1ccc(O)c(SCC(NC(=O)CCC(N)C(=O)O)C(=O)NCC(=O)O)c12 (centres unmarked)	Not fulfilled
